# credit: patent USRE47150

Biological target: T1, mouse tissue factor pathway inhibitor (TFPI) (mouse, UniProt O54819 29-289, limits assumed)
T1 construct: bought; also called mTFPI; murine TFPI
T1 sequence (looked up): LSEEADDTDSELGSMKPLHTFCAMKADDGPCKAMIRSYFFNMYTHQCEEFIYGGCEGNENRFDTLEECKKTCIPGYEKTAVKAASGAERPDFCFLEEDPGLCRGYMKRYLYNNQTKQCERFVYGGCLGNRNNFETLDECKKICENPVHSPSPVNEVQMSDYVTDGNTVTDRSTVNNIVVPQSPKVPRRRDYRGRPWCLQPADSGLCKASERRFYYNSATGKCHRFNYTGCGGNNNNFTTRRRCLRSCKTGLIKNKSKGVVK
Assay: competitive ELISA
MEASUREMENT_LABEL: variant/HC_D62R (ratio)
Answers are plain numbers, in ratio.

binder="4B7 HC N32D+D62Q+Y112D/LC S32R+D33R+N35I (Fab, V domains shown) VH: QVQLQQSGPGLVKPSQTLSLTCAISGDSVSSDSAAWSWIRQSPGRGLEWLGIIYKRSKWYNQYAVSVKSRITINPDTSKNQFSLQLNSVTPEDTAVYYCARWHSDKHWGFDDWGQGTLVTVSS VL: DIVMTQSPLSLPVTPGEPASISCRSSQSLVFRRGITYLNWYLQKPGQSPQLLIYKGSNRASGVPDRFSGSGSGTDFTLKISRVEAEDVGVYYCQQYDSYPLTFGQGTKVEIKR" measurement_label=variant/HC_D62R unit_info=ratio quantitative_result=23.5

Let us examine a further case.
Supply variant/HC_D62R value. Item: 4B7 HC N32D+D62R+Y112D/LC V30L+S32R+N35I+T36N (Fab, V domains shown) VH: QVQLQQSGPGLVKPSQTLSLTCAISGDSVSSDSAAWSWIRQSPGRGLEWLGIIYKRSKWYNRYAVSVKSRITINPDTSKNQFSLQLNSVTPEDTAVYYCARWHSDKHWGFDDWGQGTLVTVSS VL: DIVMTQSPLSLPVTPGEPASISCRSSQSLLFRDGINYLNWYLQKPGQSPQLLIYKGSNRASGVPDRFSGSGSGTDFTLKISRVEAEDVGVYYCQQYDSYPLTFGQGTKVEIKR
7
